// data source = patent US7435837B2

molecular target: human 5-HT2C receptor (Homo sapiens); test: 5-HT2C receptor-stimulated calcium mobilization (FLIPR) in CHO cells; format: cell-based; conditions: calcium mobilization, CHO cells stably expressing human 5-HT2C; read-out: 5-HT2C Function EC50;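 note: Fluo-3-AM fluorescence read on FLIPR every 1 s, agonist added after 10 baseline reads, response taken as peak minus lowest raw fluorescence count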
Sequence (P28335 33-458): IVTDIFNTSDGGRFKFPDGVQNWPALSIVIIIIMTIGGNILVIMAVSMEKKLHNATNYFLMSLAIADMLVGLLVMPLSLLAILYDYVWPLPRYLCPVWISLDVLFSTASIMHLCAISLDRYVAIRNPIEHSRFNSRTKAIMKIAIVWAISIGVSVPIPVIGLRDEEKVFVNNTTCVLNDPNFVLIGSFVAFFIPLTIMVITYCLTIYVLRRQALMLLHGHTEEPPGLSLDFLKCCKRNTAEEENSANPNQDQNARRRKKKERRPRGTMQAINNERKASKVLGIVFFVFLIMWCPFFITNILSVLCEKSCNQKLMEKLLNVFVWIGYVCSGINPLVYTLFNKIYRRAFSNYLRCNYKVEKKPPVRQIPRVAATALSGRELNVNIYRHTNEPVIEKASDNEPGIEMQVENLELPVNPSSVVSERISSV
Quantity: EC50 (nM)
Express the result in nM but write the number alone.

*Q* Give EC50 for NCC1Cc2cc(F)cc(-c3ccccc3F)c2O1 (racemic)
*A* 93

*Q* Check the records and state EC50 for NCC1Cc2cccc(-c3ccccc3C(F)(F)F)c2O1 (single isomer, unassigned; (-)) [Example 54]
*A* 9

*Q* Answer with reported EC50 of CNCC1Cc2cc(OC)cc(-c3cccc(F)c3F)c2O1 (racemic)
*A* 475

*Q* Please report EC50 for the following molecule: NCC1Cc2cccc(-c3c(Cl)cccc3Cl)c2O1 (single isomer, unassigned; (+)) [Example 142]
*A* 101

*Q* Please look at this molecule and report its EC50: Cc1ccccc1-c1cc(F)c(F)c2c1OC(CN)C2 (racemic)
*A* 1000

*Q* Please give measured EC50 of the following entry: NCC1Cc2cc(C(F)(F)F)cc(-c3ccc(F)cc3F)c2O1 (racemic)
*A* 111

*Q* Consider the molecule CNCC1Cc2cc(C)cc(-c3ccc(OC)cc3)c2O1 (racemic) . State its measured EC50.
*A* 58

*Q* Specify measured EC50 for NCC1Cc2cc(Cl)cc(-c3ccsc3)c2O1 (single isomer, unassigned; (-)) .
*A* 45
